Give measured GI50 for each item. Keep answers brief.
- Test system: MCF7
- assay-procedure: Growth inhibition of human MCF7 cells incubated for 72 hrs by SRB assay
- Format: functional
Answers are plain numbers, in nM.

Example results:
O=C1Nc2cc(-c3ccc(NS(=O)(=O)c4ccc(-c5ccccc5)cc4)cc3)ccc2/C1=C/c1ccc[nH]1    74.6
O=C1Nc2cc(-c3ccc(NS(=O)(=O)c4ccc(Br)cc4)cc3)ccc2/C1=C/c1ccc[nH]1    31.6

Lab note: next molecule to report on.
Req: Param readout = GI50; param system = MCF7; param query = COc1ccc(S(=O)(=O)Nc2ccc(-c3ccc4c(c3)NC(=O)/C4=C\c3ccc[nH]3)cc2)cc1OC ; response: value
Resp: 47.7
